biological target: Ba/F3-FGFR3-transfected cells (Homo sapiens, UniProt P22607); assay: Ba/F3-FGFR3 (minus IL3) cellular proliferation assay, Alamar Blue; assay type: cell-based; settings: minus IL3, 96 well
Sequence (P22607 whole entry, change not shown): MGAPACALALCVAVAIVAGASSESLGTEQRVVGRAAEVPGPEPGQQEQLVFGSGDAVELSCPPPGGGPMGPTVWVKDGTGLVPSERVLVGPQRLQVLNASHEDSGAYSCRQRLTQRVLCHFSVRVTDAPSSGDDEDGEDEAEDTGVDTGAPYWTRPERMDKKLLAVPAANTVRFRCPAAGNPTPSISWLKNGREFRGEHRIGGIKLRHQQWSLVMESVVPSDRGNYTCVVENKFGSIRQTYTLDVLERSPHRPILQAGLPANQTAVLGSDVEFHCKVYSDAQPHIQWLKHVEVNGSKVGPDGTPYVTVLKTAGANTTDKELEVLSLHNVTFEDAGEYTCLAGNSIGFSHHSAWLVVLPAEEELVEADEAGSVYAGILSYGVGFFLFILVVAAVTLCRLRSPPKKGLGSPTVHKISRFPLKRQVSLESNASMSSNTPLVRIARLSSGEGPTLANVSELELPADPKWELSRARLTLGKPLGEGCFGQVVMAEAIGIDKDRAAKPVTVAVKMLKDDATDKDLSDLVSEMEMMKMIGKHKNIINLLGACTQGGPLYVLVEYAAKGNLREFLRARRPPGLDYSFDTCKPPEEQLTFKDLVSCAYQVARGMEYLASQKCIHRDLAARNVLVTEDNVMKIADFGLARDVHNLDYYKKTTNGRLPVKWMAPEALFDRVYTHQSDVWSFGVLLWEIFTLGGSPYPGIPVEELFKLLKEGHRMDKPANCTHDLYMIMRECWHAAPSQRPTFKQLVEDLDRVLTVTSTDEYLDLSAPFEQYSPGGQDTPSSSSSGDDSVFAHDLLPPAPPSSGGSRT
endpoint.name: BAF3-FGFR 3 (MIN IL3) 96 well pIC50

>>> observed_measurement("COc1cc(OC)cc(N(CC2CC2)c2ccc3ncc(C(=O)NCCN4CCOCC4)nc3c2)c1 [Compound 96]")
5.18
>>> observed_measurement("COc1cc(OC)cc(N(CC2CC2)c2ccc3ncc(-c4ccnc(N5CCOCC5)c4)nc3c2)c1 [Compound 90]")
5.09
>>> observed_measurement("CCOC(=O)c1ncn(-c2cnc3ccc(N(CC4CC4)c4cc(OC)cc(OC)c4)cc3n2)c1C [Compound 65]")
5.08
>>> observed_measurement("COc1cc(OC)cc(N(CC2CC2)c2ccc3ncc(-c4cnco4)nc3c2)c1 [Compound 55]")
5.65
